The molecules below have reported Ki for human H3 receptor (Homo sapiens, UniProt Q9Y5N1).
Numbers only, in µM.

{"MOLECULE": "Cc1ccc(CN2CCCN(C(=O)CCSCc3cn4ccccc4n3)CC2)cc1", "MEASURE UNIT": "µM", "Ki": 2.82}
{"MOLECULE": "Cc1ccc2c(c1)c1c3n2CCN(CC(O)CNCc2ccccc2)C3CCC1 (stereo not drawn)", "MEASURE UNIT": "µM", "Ki": 14.8}
{"MOLECULE": "Cc1ccc2c(c1)c1c3n2CCN(CC(O)CN2CCN(C)CC2)C3CCC1 (stereo not drawn)", "MEASURE UNIT": "µM", "Ki": 4.82}
{"MOLECULE": "Cc1nccn1-c1ccc(CNCc2cccc(C#N)c2)cc1F", "MEASURE UNIT": "µM", "Ki": 4.24}
{"MOLECULE": "CCN1CCNC(=O)C1CC(=O)N1CCc2[nH]c3c(C)cccc3c2C1 (stereo not drawn)", "MEASURE UNIT": "µM", "Ki": 86.7}
{"MOLECULE": "CCN(Cc1nc2ccccc2[nH]1)CC1CCCN(CCc2cccc(OC)c2)C1 (stereo not drawn)", "MEASURE UNIT": "µM", "Ki": 1.75}

Incoming: Using known records, supply Ki for `CCCCN1CN(CCCN2CCCCC2)Cn2c1nc1ccccc12`
Outgoing: 1.75
